meta.source: patent US20200339625A1

- Tested on: mice bearing PSMA-expressing LNCAP cancer xenografts
- measurement.notes: Biodistribution of 68Ga-labeled compounds
- Format: in vivo
- experimental.setup: 3 h post-injection
quantity.kind: Fat uptake (% ID/g)
Express it in % ID/g; write the number only.

Example entries begin here.
compound	quantity.kind	endpoint.unit	test.result
Cc1ccc(CCCC(=O)NCC(=O)N[C@@H](CCCCNC(=O)CN2CCN(CC(=O)[O-])CCN(CC(=O)[O-])CCN(CC(=O)[O-])CC2)C(=O)NC[C@H]2CC[C@H](C(=O)N[C@@H](Cc3ccc4ccccc4c3)C(=O)NCCCC[C@H](NC(=O)N[C@@H](CCC(=O)O)C(=O)O)C(=O)O)CC2)cc1.[68Ga+3] [^68Ga-HTK03090]	Fat uptake	% ID/g	1.30
COc1ccc(CCCC(=O)NCC(=O)N[C@@H](CCCCNC(=O)CN2CCN(CC(=O)[O-])CCN(CC(=O)[O-])CCN(CC(=O)[O-])CC2)C(=O)NC[C@H]2CC[C@H](C(=O)N[C@@H](Cc3ccc4ccccc4c3)C(=O)NCCCC[C@H](NC(=O)N[C@@H](CCC(=O)O)C(=O)O)C(=O)O)CC2)cc1.[68Ga+3] [^68Ga-HTK03086]	Fat uptake	% ID/g	0.95
O=C([O-])CN1CCN(CC(=O)[O-])CCN(CC(=O)NCCCC[C@H](NC(=O)CNC(=O)CCCc2ccccc2)C(=O)NC[C@H]2CC[C@H](C(=O)N[C@@H](Cc3ccc4ccccc4c3)C(=O)NCCCC[C@H](NC(=O)N[C@@H](CCC(=O)O)C(=O)O)C(=O)O)CC2)CCN(CC(=O)[O-])CC1.[68Ga+3] [^68Ga-HTK03056]	Fat uptake	% ID/g	0.58
Nc1ccc(CCCC(=O)NCC(=O)N[C@@H](CCCCNC(=O)CN2CCN(CC(=O)[O-])CCN(CC(=O)[O-])CCN(CC(=O)[O-])CC2)C(=O)NC[C@H]2CC[C@H](C(=O)N[C@@H](Cc3ccc4ccccc4c3)C(=O)NCCCC[C@H](NC(=O)N[C@@H](CCC(=O)O)C(=O)O)C(=O)O)CC2)cc1.[68Ga+3] [^68Ga-HTK03087]	Fat uptake	% ID/g	0.40
O=C([O-])CN1CCN(CC(=O)[O-])CCN(CC(=O)NCCCC[C@H](NC(=O)CNC(=O)CCc2ccccc2)C(=O)NC[C@H]2CC[C@H](C(=O)N[C@@H](Cc3ccc4ccccc4c3)C(=O)NCCCC[C@H](NC(=O)N[C@@H](CCC(=O)O)C(=O)O)C(=O)O)CC2)CCN(CC(=O)[O-])CC1.[68Ga+3] [^68Ga-HTK03082]	Fat uptake	% ID/g	0.21

// switching to the query compound
Challenge: Given the entry O=C([O-])CN1CCN(CC(=O)[O-])CCN(CC(=O)NCCCC[C@H](NC(=O)CNC(=O)CCCc2ccc(F)cc2)C(=O)NC[C@H]2CC[C@H](C(=O)N[C@@H](Cc3ccc4ccccc4c3)C(=O)NCCCC[C@H](NC(=O)N[C@@H](CCC(=O)O)C(=O)O)C(=O)O)CC2)CCN(CC(=O)[O-])CC1.[68Ga+3] [^68Ga-HTK03085] , what Fat uptake was observed with mice bearing PSMA-expressing LNCAP cancer xenografts?
Response given: 0.70

----------
# Tumor:Muscle ratio values compiled below
- Test system: mice bearing PSMA-expressing LNCAP cancer xenografts
- measurement.notes: Biodistribution of 68Ga-labeled compounds
- Type: in vivo
- experimental.setup: 3 h post-injection
Lab note: jot down the number only; don't add units.

Example entries begin here.
compound	test.result
Cc1ccc(CCCC(=O)NCC(=O)N[C@@H](CCCCNC(=O)CN2CCN(CC(=O)[O-])CCN(CC(=O)[O-])CCN(CC(=O)[O-])CC2)C(=O)NC[C@H]2CC[C@H](C(=O)N[C@@H](Cc3ccc4ccccc4c3)C(=O)NCCCC[C@H](NC(=O)N[C@@H](CCC(=O)O)C(=O)O)C(=O)O)CC2)cc1.[68Ga+3] [^68Ga-HTK03090]	16.6
COc1ccc(CCCC(=O)NCC(=O)N[C@@H](CCCCNC(=O)CN2CCN(CC(=O)[O-])CCN(CC(=O)[O-])CCN(CC(=O)[O-])CC2)C(=O)NC[C@H]2CC[C@H](C(=O)N[C@@H](Cc3ccc4ccccc4c3)C(=O)NCCCC[C@H](NC(=O)N[C@@H](CCC(=O)O)C(=O)O)C(=O)O)CC2)cc1.[68Ga+3] [^68Ga-HTK03086]	50.5

// switching to the query compound
Challenge: Given O=C([O-])CN1CCN(CC(=O)[O-])CCN(CC(=O)NCCCC[C@H](NC(=O)CNC(=O)CCCc2ccc(Cl)cc2)C(=O)NC[C@H]2CC[C@H](C(=O)N[C@@H](Cc3ccc4ccccc4c3)C(=O)NCCCC[C@H](NC(=O)N[C@@H](CCC(=O)O)C(=O)O)C(=O)O)CC2)CCN(CC(=O)[O-])CC1.[68Ga+3] [^68Ga-HTK03055] , state its recorded Tumor:Muscle ratio.
Response given: 24.5

----------
- Test system: mice bearing PSMA-expressing LNCAP cancer xenografts
- measurement.notes: Biodistribution of 68Ga-labeled compounds
- Type: in vivo
- experimental.setup: 3 h post-injection
# Urine uptake values compiled below
Express it in % ID/g; write the number only.

compound	test.result
O=C([O-])CN1CCN(CC(=O)[O-])CCN(CC(=O)NCCCC[C@H](NC(=O)CNC(=O)CCCc2ccc(F)cc2)C(=O)NC[C@H]2CC[C@H](C(=O)N[C@@H](Cc3ccc4ccccc4c3)C(=O)NCCCC[C@H](NC(=O)N[C@@H](CCC(=O)O)C(=O)O)C(=O)O)CC2)CCN(CC(=O)[O-])CC1.[68Ga+3] [^68Ga-HTK03085]	141
O=C([O-])CN1CCN(CC(=O)[O-])CCN(CC(=O)NCCCC[C@H](NC(=O)CNC(=O)CCCc2ccc(Cl)cc2)C(=O)NC[C@H]2CC[C@H](C(=O)N[C@@H](Cc3ccc4ccccc4c3)C(=O)NCCCC[C@H](NC(=O)N[C@@H](CCC(=O)O)C(=O)O)C(=O)O)CC2)CCN(CC(=O)[O-])CC1.[68Ga+3] [^68Ga-HTK03055]	33.8

// switching to the query compound
Challenge: Given O=C([O-])CN1CCN(CC(=O)[O-])CCN(CC(=O)NCCCC[C@H](NC(=O)CNC(=O)CCCc2ccc(Br)cc2)C(=O)NC[C@H]2CC[C@H](C(=O)N[C@@H](Cc3ccc4ccccc4c3)C(=O)NCCCC[C@H](NC(=O)N[C@@H](CCC(=O)O)C(=O)O)C(=O)O)CC2)CCN(CC(=O)[O-])CC1.[68Ga+3] [^68Ga-HTK03058] , state its recorded Urine uptake.
Response given: 6.15

----------
- Test system: mice bearing PSMA-expressing LNCAP cancer xenografts
- measurement.notes: Biodistribution of 68Ga-labeled compounds
- Assay type: in vivo
- experimental.setup: 1 h post-injection
quantity.kind: Tumor uptake (% ID/g)

molecule	test.system	Tumor uptake, % ID/g
COc1ccc(CCCC(=O)NCC(=O)N[C@@H](CCCCNC(=O)CN2CCN(CC(=O)[O-])CCN(CC(=O)[O-])CCN(CC(=O)[O-])CC2)C(=O)NC[C@H]2CC[C@H](C(=O)N[C@@H](Cc3ccc4ccccc4c3)C(=O)NCCCC[C@H](NC(=O)N[C@@H](CCC(=O)O)C(=O)O)C(=O)O)CC2)cc1.[68Ga+3] [^68Ga-HTK03086]	mice bearing PSMA-expressing LNCAP cancer xenografts	17.8
O=C([O-])CN1CCN(CC(=O)[O-])CCN(CC(=O)NCCCC[C@H](NC(=O)CNC(=O)CCCc2ccccc2)C(=O)NC[C@H]2CC[C@H](C(=O)N[C@@H](Cc3ccc4ccccc4c3)C(=O)NCCCC[C@H](NC(=O)N[C@@H](CCC(=O)O)C(=O)O)C(=O)O)CC2)CCN(CC(=O)[O-])CC1.[68Ga+3] [^68Ga-HTK03056]	mice bearing PSMA-expressing LNCAP cancer xenografts	25.9
O=C([O-])CN1CCN(CC(=O)[O-])CCN(CC(=O)NCC2CCC(C(=O)NC(Cc3ccc4ccc5cccc6ccc3c4c56)C(=O)NCCCCC(NC(=O)NC(CCC(=O)O)C(=O)O)C(=O)O)CC2)CCN(CC(=O)[O-])CC1.[68Ga+3] (stereo not shown) [^68Ga-HTK03029]	mice bearing PSMA-expressing LNCAP cancer xenografts	13.9
Nc1ccc(CCCC(=O)NCC(=O)N[C@@H](CCCCNC(=O)CN2CCN(CC(=O)[O-])CCN(CC(=O)[O-])CCN(CC(=O)[O-])CC2)C(=O)NC[C@H]2CC[C@H](C(=O)N[C@@H](Cc3ccc4ccccc4c3)C(=O)NCCCC[C@H](NC(=O)N[C@@H](CCC(=O)O)C(=O)O)C(=O)O)CC2)cc1.[68Ga+3] [^68Ga-HTK03087]	mice bearing PSMA-expressing LNCAP cancer xenografts	20.7
Cc1ccc(CCCC(=O)NCC(=O)N[C@@H](CCCCNC(=O)CN2CCN(CC(=O)[O-])CCN(CC(=O)[O-])CCN(CC(=O)[O-])CC2)C(=O)NC[C@H]2CC[C@H](C(=O)N[C@@H](Cc3ccc4ccccc4c3)C(=O)NCCCC[C@H](NC(=O)N[C@@H](CCC(=O)O)C(=O)O)C(=O)O)CC2)cc1.[68Ga+3] [^68Ga-HTK03090]	mice bearing PSMA-expressing LNCAP cancer xenografts	8.54

(a) O=C([O-])CN1CCN(CC(=O)[O-])CCN(CC(=O)NCC2CCC(C(=O)NC(Cc3ccc4cc5ccccc5cc4c3)C(=O)NCCCCC(NC(=O)NC(CCC(=O)O)C(=O)O)C(=O)O)CC2)CCN(CC(=O)[O-])CC1.[68Ga+3] (stereo not shown) [^68Ga-HTK03027]
(b) O=C([O-])CN1CCN(CC(=O)[O-])CCN(CC(=O)NCC2CCC(C(=O)NC(Cc3c4ccccc4cc4ccccc34)C(=O)NCCCCC(NC(=O)NC(CCC(=O)O)C(=O)O)C(=O)O)CC2)CCN(CC(=O)[O-])CC1.[68Ga+3] (stereo not shown) [^68Ga-HTK03041]
Challenge: Hi there, can you help? I need to know whether a or b has lower measured Tumor uptake. Give the label under which the chosen entry appears.
Response given: a
